Test system: Escherichia coli TOP10
test details: shrunken log2 fold change of peptide-encoding DNA abundance (4.5 h post-induction vs induction); higher = less antimicrobial activity (less host growth inhibition)
run conditions: time post-induction: 4.5 h; library: site-saturation at positions 5, 18, 19, 20
Label satisfied when shrunken log2 fold change is at or above -0.1; anything below gets not satisfied.

Observe how each entry below is paired with its result.
IN: Determine whether measured shrunken log2 fold change meets or exceeds -0.1 for RRIRHRPPRLPRPRPRPWFDPRP
OUT: satisfied

IN: Determine whether measured shrunken log2 fold change meets or exceeds -0.1 for RRIRERPPRLPRPRPRPLDLPRP
OUT: not satisfied

New cases:
IN: Determine whether measured shrunken log2 fold change meets or exceeds -0.1 for RRIRHRPPRLPRPRPRPDLKPRP
OUT: satisfied

###

Test system: Escherichia coli TOP10
test details: shrunken log2 fold change of peptide-encoding DNA abundance (4.5 h post-induction vs induction); higher = less antimicrobial activity (less host growth inhibition)
run conditions: time post-induction: 4.5 h; library: site-saturation at positions 5, 18, 19, 20
Each entry below carries its reported shrunken log2 fold change.
Output spec: single numeric token, no unit.

Below, each entry is followed by its recorded shrunken log2 fold change result.
IN: Please indicate shrunken log2 fold change recorded for RRIRPRPPRLPRPRPRPCEYPRP
OUT: 1.65

IN: Please indicate shrunken log2 fold change recorded for RRIRMRPPRLPRPRPRPEKVPRP
OUT: 1.45

IN: Please indicate shrunken log2 fold change recorded for RRIRKRPPRLPRPRPRPQDVPRP
OUT: -0.0018

New cases:
IN: Please indicate shrunken log2 fold change recorded for RRIRQRPPRLPRPRPRPLTTPRP
OUT: 0.106

IN: Please indicate shrunken log2 fold change recorded for RRIRDRPPRLPRPRPRPKLIPRP
OUT: 0.088

IN: Please indicate shrunken log2 fold change recorded for RRIRNRPPRLPRPRPRPFVFPRP
OUT: -0.0679

IN: Please indicate shrunken log2 fold change recorded for RRIRDRPPRLPRPRPRPQPWPRP
OUT: 0.11

IN: Please indicate shrunken log2 fold change recorded for RRIRMRPPRLPRPRPRPAAHPRP
OUT: 0.531

###

Tested on: Escherichia coli TOP10;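 note: peptides expressed intracellularly from a pBAD plasmid library in pooled LB shake-flask culture, induced with 0.3% L-arabinose, DNA abundance read by NGS, three biological replicates, DESeq2 with apeglm shrinkage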
test details: shrunken log2 fold change of peptide-encoding DNA abundance (4.5 h post-induction vs induction); higher = less antimicrobial activity (less host growth inhibition)
run conditions: time post-induction: 4.5 h; library: site-saturation at positions 5, 18, 19, 20
measured quantity: shrunken log2 fold change
Output spec: single numeric token, no unit.

IN: State shrunken log2 fold change on Escherichia coli TOP10. Entry: RRIRNRPPRLPRPRPRPFNIPRP
OUT: 0.0411

IN: State shrunken log2 fold change on Escherichia coli TOP10. Entry: RRIRLRPPRLPRPRPRPIMSPRP
OUT: -0.2

IN: State shrunken log2 fold change on Escherichia coli TOP10. Entry: RRIRQRPPRLPRPRPRPPVNPRP
OUT: -0.0759

IN: State shrunken log2 fold change on Escherichia coli TOP10. Entry: RRIRNRPPRLPRPRPRPVTCPRP
OUT: -0.45

IN: State shrunken log2 fold change on Escherichia coli TOP10. Entry: RRIRWRPPRLPRPRPRPAWTPRP
OUT: 0.428

New cases:
IN: State shrunken log2 fold change on Escherichia coli TOP10. Entry: RRIRDRPPRLPRPRPRPKECPRP
OUT: 0.184

IN: State shrunken log2 fold change on Escherichia coli TOP10. Entry: RRIRIRPPRLPRPRPRPWADPRP
OUT: -0.435

IN: State shrunken log2 fold change on Escherichia coli TOP10. Entry: RRIRPRPPRLPRPRPRPHGYPRP
OUT: -0.0483

IN: State shrunken log2 fold change on Escherichia coli TOP10. Entry: RRIRVRPPRLPRPRPRPFMEPRP
OUT: -0.265

IN: State shrunken log2 fold change on Escherichia coli TOP10. Entry: RRIRFRPPRLPRPRPRPVIYPRP
OUT: -0.588

IN: State shrunken log2 fold change on Escherichia coli TOP10. Entry: RRIRKRPPRLPRPRPRPGGKPRP
OUT: 0.123
